System: SR leukemia
method-summary: NCI tumour cell line growth inhibition, 48 h
Here, each record is paired with measured TGI data.
Write it as a number; the unit µM goes unstated.

Example entries and their recorded answers appear below.
// lookup TGI for CN1CN(c2ccccc2)C2(CCN(CCC3COc4ccccc4O3)CC2)C1=O (stereo not drawn) 71.6

// lookup TGI for CCCCCC/C=C1\CCC(CN2CCOCC2)C1=O (stereo not drawn) 13.6

// lookup TGI for Cc1ccc2nc(C=Nc3ccc(Cl)cc3)cc(C)c2c1 11.6

// lookup TGI for COc1ccc2[nH]c3c(C)c4ccnc(NCCCN(C)CCCNc5ccc6ncn7c8ccccc8c(=O)c5c67)c4c(C)c3c2c1 1.61

// lookup TGI for Cc1ccc(Cl)c(Nc2ccccc2C(=O)O)c1Cl 78.1

---
// lookup TGI for COc1cc2c(cc1Nc1nc(Nc3cccc(F)c3C(N)=O)c3cc[nH]c3n1)N(C(=O)CN1CCN(C(C)C)CC1)CC2 15.2

// lookup TGI for Cc1cc(C(C)(C)C)cc(CNC2CCCCC2)c1O 53.6

// lookup TGI for COc1ccc(C2C=C(c3ccc4c(c3)OCO4)Oc3c2c(=O)oc2ccccc32)cc1OC (stereo not drawn) 0.594

// lookup TGI for Cc1ccc(S(=O)c2sccc2C=O)cc1 (stereo not drawn) 84.2

// lookup TGI for O=C(CSc1nc2ccc(I)cc2c(=O)n1Cc1ccccc1)NNC(=O)c1ccccc1 23.7

// lookup TGI for OCCN1CCN2C=C(C3CCCC4N(CCO)CCN34)CCC21 (stereo not drawn) 26.3

// lookup TGI for Clc1ccc(-c2cc(-c3ccccc3)nc(NCCNc3ccnc4cc(Cl)ccc34)n2)cc1 4.56

###

Here, each record is paired with measured GI50 data.
Test system: SK-MEL-28 melanoma
method-summary: NCI tumour cell line growth inhibition, 48 h

// lookup GI50 for Cn1c(=O)c(Oc2ccc(F)cc2F)cc2cnc(NC3CCS(=O)(=O)CC3)nc21 > 25 µM

---
// lookup GI50 for O=S(=O)(/N=c1/scc(-c2ccccc2)n1-c1ccccc1)c1ccc(N2N=C3c4ccccc4CC3C2c2cccs2)cc1 (centres undefined) > 100 µM

// lookup GI50 for NCC1OC(OC2C(CO)OC(OC3C(O)C(N)CC(N)C3OC3OC(CO)C(O)CC3N)C2O)C(N)C(O)C1OC1OC(CO)C(O)C(O)C1O (centres undefined) > 50 µg/mL

// lookup GI50 for CC(=O)c1cc(C(=O)c2ccc3c(c2)Sc2ccccc2N3)c2cc(C)ccn12 6.79 µM

###

Test system: CAKI-1 renal
method-summary: NCI tumour cell line growth inhibition, 48 h
Here, each record is paired with measured TGI data.
Write it as a number; the unit µM goes unstated.

// lookup TGI for CN1CCN(Cc2ccc(NC(=O)c3cccc(C#Cc4cnc(N)c5ncccc45)c3F)cc2C(F)(F)F)CC1 6.34

// lookup TGI for OCc1ccc(N2CCc3ccccc3C2)cc1Cl 14.1

// lookup TGI for CC(=O)OC1CC2C3CCC4C[C@@H](NC(=O)C=C(C)C)CC[C@]4(C)C3CC[C@]2(C)[C@H]1C(C)N(C)C (some centres undefined) 13.2

---
// lookup TGI for CN1CN(c2ccccc2)C2(CCN(CCC3COc4ccccc4O3)CC2)C1=O (centres undefined) 77.5

// lookup TGI for O=C(CSc1nc2ccc(I)cc2c(=O)n1Cc1ccccc1)NNC(=O)c1ccccc1 12.3

// lookup TGI for COC(=O)C1=C(C(=O)OC)SC2(S1)C(C(=O)OC)=C(C(=O)OC)Sc1c2ssc1=Nc1ccc(Cl)cc1 2.21

###

System: OVCAR-3 ovarian
method-summary: NCI tumour cell line growth inhibition, 48 h
Here, each record is paired with measured GI50 data.

// lookup GI50 for CCCCCCCCCCCCCCCCC(=O)O.CCCCCCCCCCCCCCCCCC(=O)O.CCCCCCCCCCCCCCCCCC(=O)O.CCCCCCCCCCCCCCCCCC(=O)O.CCCCCCCCCCCCCCCCCC(=O)O.CO[CH-]OC12COC1CC(O)C1(C)C(O)C(OC(C)O)C3=C(C)C(OC(=O)C(O)C([NH-])c4ccccc4)CC(O)(C(OC(=O)c4ccccc4)C21)C3(C)C.[Cu+].[Zn].[Zn].[Zn].[Zn].[Zn] (stereo unspecified) 7.47 nM

// lookup GI50 for Cn1c(=O)c(Oc2ccc(F)cc2F)cc2cnc(NC3CCS(=O)(=O)CC3)nc21 > 25000 nM

// lookup GI50 for Cc1c(O)c2c(c(O)c1Br)C(=O)C=CC2=O 241 nM

// lookup GI50 for COc1ccc(C2=NN(C(=O)c3cc(OC)c(OC)c(OC)c3)C(c3ccc(N(C)C)cc3)C2)cc1 (stereo unspecified) 284 nM

// lookup GI50 for COc1ccc(Nc2cc(C)nc(NCCCNc3ccnc4cc(Cl)ccc34)n2)cc1 1650 nM

---
// lookup GI50 for c1ccc2cc(C[n+]3ccn(CCCCCCCCCCn4cc[n+](Cc5ccc6ccccc6c5)c4)c3)ccc2c1 1950 nM

// lookup GI50 for CCOc1cccc(-c2nc(N)nc(Nc3ccccc3SSc3ccccc3Nc3nc(N)nc(-c4cccc(OCC)c4)n3)n2)c1 5370 nM

// lookup GI50 for COC1=CC(c2ccc[nH]2)=N/C1=C\c1[nH]c(C)c(C(=O)CCCCC(=O)Oc2ccc3c(c2)CCC2C3CC[C@]3(C)[C@@H](O)CC[C@@H]23)c1C (stereo partly specified) > 100000 nM

// lookup GI50 for CC(=O)c1cc(C(=O)c2ccc3c(c2)Sc2ccccc2N3)c2cc(C)ccn12 32.3 nM

// lookup GI50 for COc1cc([C@@H]2C[C@H]2c2cc(SC)n[nH]2)cc(OC)c1OC 13200 nM

// lookup GI50 for Oc1cc2ccccc2c(-c2c(O)c(O)cc3ccccc23)c1O 825 nM

// lookup GI50 for O=C(Nc1n[nH]c2nnc(-c3cccnc3)cc12)C1CC1 114 nM

// lookup GI50 for CC1(C)[C@@H](OC(=O)CCC(=O)O)CC[C@]2(C)[C@H]3C(=O)C=C4[C@@H]5C[C@@](C)(C(=O)O)CC[C@]5(C)CC[C@@]4(C)[C@]3(C)CC[C@@H]12 50400 nM

// lookup GI50 for COc1cc(-c2c(C#N)c(N)nc(N3CCOCC3)c2C#N)cc(OC)c1OC 68800 nM

// lookup GI50 for COc1cc(C(=O)N/N=C/c2ccc(N(C)C)cc2)cc(OC)c1OC 259 nM

// lookup GI50 for CCN(CC)C1CCC(Nc2c(C(C)=O)cnc3ccc(-c4ccc(O)c(Cl)c4)cc23)CC1 (stereo unspecified) 380 nM

###

System: DU-145 prostate
method-summary: NCI tumour cell line growth inhibition, 48 h
endpoint-label: TGI

Example entries and their recorded answers appear below.
// lookup TGI for CCCCCCCCC(=O)OCC(CS[As](C)C)OC(=O)CCCCCCCC (stereo unspecified) 2.64 µM

// lookup TGI for O=C(O)CCCc1ccc2ccccc2c1 > 100 µM

// lookup TGI for O=C(OCc1ccccc1)N(CCCCN(CCCNCc1ccccc1)C(=O)OCc1ccccc1)CCCNCc1ccccc1 2.55 µM

// lookup TGI for C1CC[C@H]2SSC3CCCC[C@H]3SSC2C1 (stereo partly specified) > 100 µM

// lookup TGI for Fc1ccc(-c2sc(-c3cccs3)cc2Cc2cccs2)cc1 > 100 µM

---
// lookup TGI for CN1CN(c2ccccc2)C2(CCN(CCC3COc4ccccc4O3)CC2)C1=O (stereo unspecified) > 100 µM

// lookup TGI for COC(=O)[C@H](CC(C)C)Nc1c(O)c2c(c(O)c1Cl)C(=O)C=CC2=O > 10 µM

// lookup TGI for Cc1ccc(Cl)c(Nc2ccccc2C(=O)O)c1Cl 71.8 µM

// lookup TGI for OCCOc1ccccc2cccc1-2 > 100 µM

// lookup TGI for Clc1ccc(-c2cc(-c3ccccc3)nc(NCCNc3ccnc4cc(Cl)ccc34)n2)cc1 3.31 µM

// lookup TGI for CC1CCC2(CC1)NC1=C(CC(C)CC1)C1=C2CC(C)CC1 (stereo unspecified) > 100 µM

###

System: MDA-MB-231 breast
method-summary: NCI tumour cell line growth inhibition, 48 h; in the data active = GI50 below about 0.43 µM; inactive = the rest
Outcome field: choose from active, inactive

Solved entries (count: 4):
Could you kindly confirm the outcome this assay logged for CCOc1cccc(-c2nc(N)nc(Nc3ccccc3SSc3ccccc3Nc3nc(N)nc(-c4cccc(OCC)c4)n3)n2)c1 ? inactive

Could you kindly confirm the outcome this assay logged for Oc1cc2ccccc2c(-c2c(O)c(O)cc3ccccc23)c1O ? inactive

Could you kindly confirm the outcome this assay logged for COc1ccc(Nc2cc(C)nc(NCCCNc3ccnc4cc(Cl)ccc34)n2)cc1 ? inactive

Could you kindly confirm the outcome this assay logged for CCCCCCCCC(=O)OCC(CS[As](C)C)OC(=O)CCCCCCCC (stereo not given) ? inactive

Now consider the entry below.
Could you kindly confirm the outcome this assay logged for CC(=O)c1cc(C(=O)c2ccc3c(c2)Sc2ccccc2N3)c2cc(C)ccn12 ? active
